Cited source for all entries: patent US20180016327A1

Each record here notes measured % binding (parent = 100).
Molecular target: T1, human C5 (human, UniProt P01031 19-673; P01031 678-1676, Beta and alpha chains are disulfide-linked and the protein is glycosylated.)
T1 construct: Either in-house recombinant C5 or plasma derived C5 (CALBIOCHEM) was used; also called recombinant human C5; plasma derived human C5
Experiment: Biacore, captured antibody, pH 7.4, 37 C;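 further: biacore binding response of anti-C5 antibody light chain variants captured on chip with human C5 injected, ACES running buffer containing 1.2 mM CaCl₂, parent light chain antibody set to 100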
Provide the reading as a plain figure in %.

[
  {
    "binder": "CFP0021 21L 50T (antibody, V domains shown) VH: QVQLVESGGGLVQPGGSLRLSCAASGFTFSDHYMDWVRQAPGKGLEWVGRTRNKANSYTTEYAASVKGRFTISRDDSKNSLYLQMNSLKTEDTAVYYCARTGMMYWGIFDVWGQGTLVTVSS VL: DIQMTQSPSSLSASVGDRVTITCRASQSIEDDLAWYQQKPGKAPKLLIYTASTLQSGVPSRFSGSGSGTDFTLTISSLQPEDFATYYCQQHDSYPLTFGQGTKVEIK",
    "recorded-result": 38.8
  }
]

# input for lookup
Which % binding (parent = 100) reading was recorded for the binder CFP0011 11L 94T (antibody, V domains shown) VH: QVQLVQSGAEVKKPGSSVKVSCKASGGTFSSYAISWVRQAPGQGLEWMGGIIPIFGTANYAQKFQGRVTITADESTSTAYMELSSLRSEDTAVYYCARDMSEFLGWSNYYSYPMDVWGQGTTVTVSS VL: DIQMTQSPSSLSASVGDRVTITCRASQSIEDDLAWYQQKPGKAPKLLIYHASSLQSGVPSRFSGSGSGTDFTLTISSLQPEDFATYYCQQSDNTPYTFGQGTKVEIK ?
207
